Reported pEC50 values for a set of compounds
Target: KHK-C expressed in NRK-52E cells (Homo sapiens (Human), UniProt P50053)
Test: KHK-C Cell-based Assay (EC50), NRK CTG, fructose-mediated ATP-depletion
Give only the number. pEC50 is defined as minus log10 of concentration in molar units.

Past entries and their recorded results:
{"compound": "C[C@H]1CCN1c1nc2c(c(-c3cnc4c(c3)NCCO4)n1)CCC2 [Example 263]", "pEC50": 6.81}
{"compound": "C[C@H]1CCN1c1nc2c(c(-c3ccc4c(c3)CS(=O)(=O)C4)n1)CCC2 [Example 422]", "pEC50": 6.62}
{"compound": "C[C@H]1CCN1c1nc(-c2ccccc2)c2c(n1)[C@@H]1C[C@@H]1C2 [Example 333]", "pEC50": 5.95}
{"compound": "C[C@H]1[C@H](O)CN1c1nc(-c2ccc3c(c2)CCC32CCC(=O)N2)c2c(n1)C(F)(F)CC2 (stereo partly shown) [Example 636]", "pEC50": 7.89}
{"compound": "NC(=O)c1ccc(-c2nc(N3CCC34COC4)nc3c2CCC3)cc1 [Example 730]", "pEC50": 5.30}
{"compound": "NC1(c2ccc(-c3nc(N4CCC4C(F)F)nc4c3CCC4(F)F)cc2)CS(=O)(=O)C1 (stereo not shown) [Example 799]", "pEC50": 7.67}
{"compound": "C[C@H]1[C@H](O)CN1c1nc(-c2ccc3c(c2)CC[C@]32NC(=O)N(C)C2=O)c2c(n1)C(F)(F)CC2 [Example 488]", "pEC50": 8.39}
{"compound": "C[C@H]1[C@H](O)CN1c1nc(-c2ccc3c(c2)C(=O)N(C)CC3)c2c(n1)C(F)(F)CC2 [Example 600]", "pEC50": 6.90}
{"compound": "C[C@H]1CCN1c1nc2c(c(-c3cccc([C@@H]4C[C@H]4C(=O)O)c3)n1)CCC2 (single isomer, unassigned) [Example 90]", "pEC50": 6.92}
{"compound": "C[C@H]1CCN1c1nc2c(c(-c3cc(C(N)=O)c4ccccc4c3)n1)CCC2 [Example 423]", "pEC50": 6.62}

State measured pEC50 of the compound NC1(c2ccc(-c3nc(N4CC[C@@H]4C(F)(F)F)nc4c3CCC4(F)F)cc2)COC1 [Example 696] with KHK-C expressed in NRK-52E cells (Homo sapiens (Human), UniProt P50053).
8.24

State measured pEC50 of the compound C[C@H]1CCN1c1nc2c(c(-c3ccc4c(=O)[nH]cc(S(N)(=O)=O)c4c3)n1)CCC2 [Example 433] with KHK-C expressed in NRK-52E cells (Homo sapiens (Human), UniProt P50053).
6.32

State measured pEC50 of the compound C[C@H]1CCN1c1nc2c(c(-c3ccnc(OC(F)F)c3)n1)CCC2 [Example 453] with KHK-C expressed in NRK-52E cells (Homo sapiens (Human), UniProt P50053).
5.98

---

Biological target: human KHK-C (Homo sapiens (Human), UniProt P50053)
Sequence (P50053 whole entry): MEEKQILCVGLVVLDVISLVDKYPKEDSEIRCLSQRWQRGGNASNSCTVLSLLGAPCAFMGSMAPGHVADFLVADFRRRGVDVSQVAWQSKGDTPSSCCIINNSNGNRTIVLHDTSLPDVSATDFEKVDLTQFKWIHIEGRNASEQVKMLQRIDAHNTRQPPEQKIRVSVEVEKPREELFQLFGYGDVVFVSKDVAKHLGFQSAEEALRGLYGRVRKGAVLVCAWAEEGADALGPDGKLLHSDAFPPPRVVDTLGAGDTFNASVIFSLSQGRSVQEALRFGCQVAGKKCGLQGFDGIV
Assay: KHK Biochemical Assay (IC50), ADP-Glo, KHK-C
Conditions: average of at least two separate assays
metric: IC50
Write the numeric value and follow it with the unit.

Past entries and their recorded results:
{"compound": "C[C@H]1[C@H](O)CN1c1nc(-c2cc3cc[nH]c(=O)c3s2)c2c(n1)C(F)(F)CC2", "experimental_target": "human KHK-C (Homo sapiens (Human), UniProt P50053)", "result": "0.0026 µM"}
{"compound": "C[C@H]1[C@H](O)CN1c1nc(-c2ccc(F)c(S(C)(=N)=O)c2)c2c(n1)C(F)(F)CC2 (stereo partly shown)", "experimental_target": "human KHK-C (Homo sapiens (Human), UniProt P50053)", "result": "0.019 µM"}
{"compound": "NC(=O)c1ccc(-c2nc(N3CCC34CCOC4)nc3c2CCC3)cc1 (stereo not shown)", "experimental_target": "human KHK-C (Homo sapiens (Human), UniProt P50053)", "result": "1.62 µM"}
{"compound": "C[C@H]1CCN1c1nc2c(c(-c3cccc(C4=CS(=O)(=O)C4)c3)n1)CCC2", "experimental_target": "human KHK-C (Homo sapiens (Human), UniProt P50053)", "result": "0.0618 µM"}
{"compound": "C[C@H]1[C@H](O)CN1c1nc(-c2ccc3c(c2)OC[C@]32COCC(=O)N2)c2c(n1)C(F)(F)CC2 (single isomer, unassigned)", "experimental_target": "human KHK-C (Homo sapiens (Human), UniProt P50053)", "result": "0.0012 µM"}

Please supply the value of reported IC50 for the item `C[C@H]1CCN1c1nc(-c2cccc(N=S3(=O)CCCC3)c2)c2c(n1)C(F)(F)CC2`
0.0162 µM

Please supply the value of reported IC50 for the item `C[C@H]1CCN1c1nc(-c2cc3c(c(CNS(C)(=O)=O)c2)OCC3)c2c(n1)C(F)(F)CC2`
0.002 µM

---

Biological target: human KHK-C (Homo sapiens (Human), UniProt P50053)
Experiment: KHK Biochemical Assay (IC50), ADP-Glo, KHK-C
Conditions: ADP-Glo; average of at least two separate assays
Reported pIC50 values for a set of compounds
Give only the number. pIC50 is defined as minus log10 of concentration in molar units.

Past entries and their recorded results:
{"compound": "CNCCNC(=O)c1cccc(-c2nc(N3CC[C@@H]3C)nc3c2CCC3)c1", "metric": "pIC50", "number": 6.71}
{"compound": "C[C@H]1[C@H](O)CN1c1nc(-c2cccc(CNS(C)(=O)=O)c2)c2c(n1)C(F)(F)CC2", "metric": "pIC50", "number": 8.08}
{"compound": "C[C@H]1CCN1c1nc2c(c(-c3ccc(CN)cc3)n1)CCC2", "metric": "pIC50", "number": 8.68}
{"compound": "Cc1cc(-c2nc(N3CC[C@@H]3C)nc3c2CCC3)sn1", "metric": "pIC50", "number": 7.42}

Consider now this further compound.
State measured pIC50 of the compound `CC(=O)Nc1cccc(-c2nc(N3C[C@@H](O)[C@@H]3C)nc3c2CCC3)c1` with human KHK-C (Homo sapiens (Human), UniProt P50053).
6.90

---

Target: KHK-C expressed in NRK-52E cells (Homo sapiens (Human), UniProt P50053)
Experiment: KHK-C Cell-based Assay (EC50), NRK CTG, fructose-mediated ATP-depletion
metric: pEC50
Give only the number. pEC50 is defined as minus log10 of concentration in molar units.

Past entries and their recorded results:
{"molecule": "C[C@H]1CCN1c1nc2c(c(-c3cccc(C(N)=O)c3)n1)CCC2 [Example 8]", "experimental_target": "KHK-C expressed in NRK-52E cells (Homo sapiens (Human), UniProt P50053)", "number": 6.89}
{"molecule": "C[C@H]1CCN1c1nc2c(c(-c3ccc(CNS(C)(=O)=O)s3)n1)CCC2 [Example 460]", "experimental_target": "KHK-C expressed in NRK-52E cells (Homo sapiens (Human), UniProt P50053)", "number": 7.63}
{"molecule": "C[C@H]1CCN1c1nc2c(c(-c3cn4cnc(C(N)=O)c4s3)n1)CCC2 [Example 119]", "experimental_target": "KHK-C expressed in NRK-52E cells (Homo sapiens (Human), UniProt P50053)", "number": 8.18}
{"molecule": "C[C@H]1CCN1c1nc(-c2ccc3c(c2)OCCC3NS(C)(=O)=O)c2c(n1)C(F)(F)CC2 (some centres unmarked) [Example 759]", "experimental_target": "KHK-C expressed in NRK-52E cells (Homo sapiens (Human), UniProt P50053)", "number": 8.16}
{"molecule": "C[C@H]1CCN1c1nc2c(c(-c3cn(C4CNC4)nn3)n1)CCC2 [Example 461]", "experimental_target": "KHK-C expressed in NRK-52E cells (Homo sapiens (Human), UniProt P50053)", "number": 6.94}

Please supply the value of reported pEC50 for the item C[C@H]1CCN1c1nc2c(c(-c3cccc([S+](C)[O-])c3)n1)CCC2 (stereo in doubt) [Example 400]
6.49

Please supply the value of reported pEC50 for the item C[C@H]1CCN1c1nc(-c2ccc(C3(N)CS(=O)(=O)C3)cc2)c2c(n1)C(F)(F)CC2 [Example 769]
8.51

Please supply the value of reported pEC50 for the item CCOc1cc(-c2nc(N3CC[C@@H]3C)nc3c2CCC3)ccc1C(N)=O [Example 319]
7.43

Please supply the value of reported pEC50 for the item C[C@H]1CCN1c1nc2c(c(-c3ccc4c(c3)C3C(C4)C3C(=O)O)n1)CCC2 (some centres unmarked) [Example 428]
6.41

Please supply the value of reported pEC50 for the item C[C@H]1CCN1c1nc2c(c(-c3cccc(C4(C(N)=O)CC4)c3)n1)CCC2 [Example 254]
6.22
